Data provenance: ChEMBL document CHEMBL5352429

- System: Salmonella typhimurium
- METHOD: Antibacterial activity against Salmonella typhimurium DT104 ATCC 700408 incubated overnight by standard microtiter dilution method
- Format: functional, Salmonella enterica subsp. enterica serovar Typhimurium
- CONDITION_CONTEXT: Salmonella enterica
Peptide text beside a SMILES is read from it.
METRIC: MIC (mg/L)
Quick reminder: number only, in mg/L, skip the unit.

Return reported MIC; argument: CC(C)C[C@H](NC(=O)[C@H](CCCCN)NC(=O)[C@H](CC(C)C)NC(=O)[C@H](CCCCN)NC(=O)[C@H](CC(C)C)NC(=O)[C@H](CCCCN)NC(=O)[C@H](CS)NC(=O)CNC(=O)[C@H](CO)NC(=O)[C@H](CCCCN)NC(=O)[C@@H](NC(=O)[C@H](CS)NC(=O)[C@H](CCCCN)NC(=O)[C@H](CC(C)C)NC(=O)[C@H](CCCCN)NC(=O)[C@H](CC(C)C)NC(=O)[C@H](CCCCN)NC(=O)[C@@H](N)CC(C)C)[C@@H](C)O)C(N)=O (H-LKLKLKCTKSGCKLKLKL-NH2)
64

----------
- Test system: Salmonella enterica subsp. enterica serovar Paratyphi B
- METHOD: Antibacterial activity against Salmonella paratyphi B CICC 21495 incubated overnight by standard microtiter dilution method
- Assay type: functional
Peptide text beside a SMILES is read from it.
METRIC: MIC (µg/mL)
Quick reminder: number only, in µg/mL, skip the unit.

CC(C)C[C@H](NC(=O)[C@H](CCCCN)NC(=O)[C@H](CC(C)C)NC(=O)[C@H](CCCCN)NC(=O)[C@H](CS)NC(=O)CNC(=O)[C@H](CO)NC(=O)[C@H](CCCCN)NC(=O)[C@@H](NC(=O)[C@H](CS)NC(=O)[C@H](CCCCN)NC(=O)[C@H](CC(C)C)NC(=O)[C@H](CCCCN)NC(=O)[C@@H](N)CC(C)C)[C@@H](C)O)C(N)=O (H-LKLKCTKSGCKLKL-NH2) :: 2

Please look at the following compound next.
Return reported MIC; argument: CC(C)C[C@H](NC(=O)[C@H](CCCCN)NC(=O)[C@H](CC(C)C)NC(=O)[C@H](CCCCN)NC(=O)[C@H](CC(C)C)NC(=O)[C@H](CCCCN)NC(=O)[C@H](CS)NC(=O)CNC(=O)[C@H](CO)NC(=O)[C@H](CCCCN)NC(=O)[C@@H](NC(=O)[C@H](CS)NC(=O)[C@H](CCCCN)NC(=O)[C@H](CC(C)C)NC(=O)[C@H](CCCCN)NC(=O)[C@H](CC(C)C)NC(=O)[C@H](CCCCN)NC(=O)[C@@H](N)CC(C)C)[C@@H](C)O)C(N)=O (H-LKLKLKCTKSGCKLKLKL-NH2)
4

----------
- METHOD: Cytotoxicity against mouse RAW264.7 cells assessed as cell viability at 128 ug/ml incubated for 24 hrs by MTT assay
- Format: toxicity, cell-based
- CONDITION_CONTEXT: at 128 µg/mL, read-out: Activity
Peptide text beside a SMILES is read from it.
As shown below, each of these compounds has a reported viability at 24 h, 128 ug/ml value.
Answer format: value, then unit.

CC(C)[C@H](N)C(=O)N[C@@H](CCCCN)C(=O)N[C@H](C(=O)N[C@@H](CCCCN)C(=O)N[C@H](C(=O)N[C@@H](CCCCN)C(=O)N[C@@H](CS)C(=O)N[C@H](C(=O)N[C@@H](CCCCN)C(=O)N[C@@H](CO)C(=O)NCC(=O)N[C@@H](CS)C(=O)N[C@@H](CCCCN)C(=O)N[C@H](C(=O)N[C@@H](CCCCN)C(=O)N[C@H](C(=O)N[C@@H](CCCCN)C(=O)N[C@H](C(N)=O)C(C)C)C(C)C)C(C)C)[C@@H](C)O)C(C)C)C(C)C (H-VKVKVKCTKSGCKVKVKV-NH2) :: 39.8%

Please look at the following compound next.
Return reported viability at 24 h, 128 ug/ml; argument: CC(C)C[C@H](NC(=O)[C@H](CCCCN)NC(=O)[C@H](CC(C)C)NC(=O)[C@H](CCCCN)NC(=O)[C@H](CC(C)C)NC(=O)[C@H](CCCCN)NC(=O)[C@H](CS)NC(=O)CNC(=O)[C@H](CO)NC(=O)[C@H](CCCCN)NC(=O)[C@@H](NC(=O)[C@H](CS)NC(=O)[C@H](CCCCN)NC(=O)[C@H](CC(C)C)NC(=O)[C@H](CCCCN)NC(=O)[C@H](CC(C)C)NC(=O)[C@H](CCCCN)NC(=O)[C@@H](N)CC(C)C)[C@@H](C)O)C(N)=O (H-LKLKLKCTKSGCKLKLKL-NH2)
14.2%
